# assay_name: Half life in Sprague-Dawley rat at 10 mg/kg, po administered as single dose by LC-MS/MS analysis
# Type: ADME, organism-based
# condition_description: in vivo
parameter_measured: half-life (min)
Your answer is read as min, so omit the unit and give the number.

I am curious: what half-life value has been reported for CN1CCN(c2ccc(C(=O)Nc3n[nH]c4ccc(Cc5cc(F)cc(F)c5)cc34)c(NC3CCOCC3)c2)CC1 [ENTRECTINIB] ?
228

* * *

# assay_name: AUC (infinity) in Harlan nu/nu mouse at 10 mg/kg, po administered as single dose by LC-MS/MS analysis
# Format: ADME, organism-based
# Set-up: dose 10 mg/kg, route oral, time infinity
# condition_description: in vivo
parameter_measured: log10 AUC(0-inf) (log10 of the value in µM·h)
Field: value | Transform: log10 | Quantity: AUC(0-inf) | Unit: µM·h

Item CN1CCN(c2ccc(C(=O)Nc3n[nH]c4ccc(Cc5cc(F)cc(F)c5)cc34)c(N[C@H]3CC[C@H](O)CC3)c2)CC1 has what recorded log10 AUC(0-inf)?
0.10

And for CN1CCC(Oc2ccc(C(=O)Nc3n[nH]c4ccc(Cc5cc(F)cc(F)c5)cc34)c(NC3CCOCC3)c2)CC1 ?
1.04

Consider next the molecule CN1CCN(c2ccc(C(=O)Nc3n[nH]c4ccc(Cc5cc(F)cc(F)c5)cc34)c(NCCF)c2)CC1 in the same way.
1.50

Would you kindly repeat that for O=C(Nc1n[nH]c2ccc(Cc3cc(F)cc(F)c3)cc12)c1ccc(CN2CCCCC2)cc1NC1CCOCC1 ?
0.18

Also check O=C(Nc1n[nH]c2ccc(Cc3cc(F)cc(F)c3)cc12)c1ccc(N2CCNCC2)cc1NC1CCOCC1
0.12

And CN1CCN(c2ccc(C(=O)Nc3n[nH]c4ccc(Cc5cc(F)cc(F)c5)cc34)c(NC3CCOCC3)c2)CC1 ?
1.24
